- study system: hM3 (native human M3 receptor) (Homo sapiens, UniProt P20309)
- Sequence (P20309 whole entry): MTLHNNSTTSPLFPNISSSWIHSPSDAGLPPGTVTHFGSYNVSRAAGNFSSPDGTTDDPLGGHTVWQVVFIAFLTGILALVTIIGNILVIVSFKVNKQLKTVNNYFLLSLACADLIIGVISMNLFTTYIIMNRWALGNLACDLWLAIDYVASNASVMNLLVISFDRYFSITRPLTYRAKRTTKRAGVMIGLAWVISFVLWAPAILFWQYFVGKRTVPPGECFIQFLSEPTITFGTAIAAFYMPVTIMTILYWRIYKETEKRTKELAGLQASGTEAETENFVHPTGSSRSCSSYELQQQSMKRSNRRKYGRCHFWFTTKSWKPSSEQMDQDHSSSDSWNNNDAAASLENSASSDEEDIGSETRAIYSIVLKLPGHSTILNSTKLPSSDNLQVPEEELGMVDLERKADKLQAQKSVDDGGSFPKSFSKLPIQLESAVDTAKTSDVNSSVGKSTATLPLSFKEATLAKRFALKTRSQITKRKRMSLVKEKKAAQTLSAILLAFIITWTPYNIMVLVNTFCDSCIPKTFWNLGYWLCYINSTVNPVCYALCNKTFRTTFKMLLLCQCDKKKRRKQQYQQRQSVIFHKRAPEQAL
- test protocol: cell-based
- Type: cell-based

compound: O=C1CN(C2=Nc3cc(Cl)ccc3Nc3ccccc32)CCN1 [Compound 7]
agonist activity for hM3 (in words): did not activate
//
compound: CC(=O)N1CCN(C2=Nc3cc(Cl)ccc3Nc3ccccc32)CC1 [Compound 12]
agonist activity for hM3 (in words): did not activate

---

- study system: hM3 (native human M3 receptor) (Homo sapiens)
- test protocol: cell-based
pEC50: −log10 of the molar value.
measurement type: pEC50

For NC1(C(=O)O)CCN(C2=Nc3cc(Cl)ccc3Nc3ccccc32)CC1 the compound record lists pEC50 as < 4.52

For CCCN1CCN(C2=Nc3cc(Cl)ccc3Nc3ccccc32)CC1 the compound record lists pEC50 as < 4.52

For C[N+]1(C)CCN(C2=Nc3cc(Cl)ccc3Nc3ccccc32)CC1.[I-] the compound record lists pEC50 as 8.02

For CC(=O)N1CCN(C2=Nc3cc(Cl)ccc3Nc3ccccc32)CC1 the compound record lists pEC50 as < 4.52

For CC(C)N1CCN(C2=Nc3cc(Cl)ccc3Nc3ccccc32)CC1 the compound record lists pEC50 as < 4.52

---

Would you mind telling me the reported pKi of each entry?
- study system: 5HT2C (Homo sapiens)
- Sequence (P28335 33-458): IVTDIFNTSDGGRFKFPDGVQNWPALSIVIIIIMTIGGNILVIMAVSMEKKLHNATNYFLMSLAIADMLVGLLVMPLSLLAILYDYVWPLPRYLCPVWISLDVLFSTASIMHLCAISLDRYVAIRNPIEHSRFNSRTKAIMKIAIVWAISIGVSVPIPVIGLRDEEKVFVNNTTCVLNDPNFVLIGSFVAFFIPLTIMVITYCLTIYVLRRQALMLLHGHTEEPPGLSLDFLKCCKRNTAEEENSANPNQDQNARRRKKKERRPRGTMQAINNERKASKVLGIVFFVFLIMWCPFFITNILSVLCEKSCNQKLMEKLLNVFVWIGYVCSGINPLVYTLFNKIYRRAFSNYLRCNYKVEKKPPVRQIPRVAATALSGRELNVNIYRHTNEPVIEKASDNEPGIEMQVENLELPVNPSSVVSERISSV
Lab note: report pKi as minus log10 of the concentration in molar units, number only.

For CC[N+]1([O-])CCN(C2=Nc3cc(Cl)ccc3Nc3ccccc32)CC1 [Compound 5b] the compound record lists pKi as 5.29

For CC(C)[N+]1([O-])CCN(C2=Nc3cc(Cl)ccc3Nc3ccccc32)CC1 [Compound 5c] the compound record lists pKi as 5.17

For CC(C)N1CCN(C2=Nc3cc(Cl)ccc3Nc3ccccc32)CC1 [Compound 4c] the compound record lists pKi as 7.77

For c1ccc2c(c1)N=C(N1CCNCC1)c1ccccc1N2 [Compound 21] the compound record lists pKi as 6.77

---

- study system: UniProt:P20309
- test protocol: cell-based
- Format: cell-based

smiles string: NC1(C(=O)O)CCN(C2=Nc3cc(Cl)ccc3Nc3ccccc32)CC1
agonist activity for hM3 (in words): did not activate
//
smiles string: CS(=O)(=O)N1CCN(C2=Nc3cc(Cl)ccc3Nc3ccccc32)CC1
agonist activity for hM3 (in words): did not activate
//
smiles string: O=C1NC(=O)C2(CCN(C3=Nc4cc(Cl)ccc4Nc4ccccc43)CC2)N1
agonist activity for hM3 (in words): did not activate

---

- study system: hM3Dq (Homo sapiens, UniProt P20309, A239G/Y149C)
- Sequence (P20309 whole entry Y149C/A239G): as the sequence (P20309 whole entry) above, with Y149C, A239G counted along it
- test protocol: cell-based
measurement type: EC50

For CS(=O)(=O)N1CCN(C2=Nc3cc(Cl)ccc3Nc3ccccc32)CC1 [Compound 14] the molecule record lists EC50 as > 30000 nM

For c1ccc2c(c1)N=C(N1CCNCC1)c1ccccc1N2 [Compound 21] the molecule record lists EC50 as 1.7 nM

For CC(C)[N+]1([O-])CCN(C2=Nc3cc(Cl)ccc3Nc3ccccc32)CC1 [Compound 5c] the molecule record lists EC50 as 190 nM

For NC1(C(=O)O)CCN(C2=Nc3cc(Cl)ccc3Nc3ccccc32)CC1 [Compound 10] the molecule record lists EC50 as > 30000 nM

For O=C1NC(=O)C2(CCN(C3=Nc4cc(Cl)ccc4Nc4ccccc43)CC2)N1 [Compound 9] the molecule record lists EC50 as > 30000 nM

For CCC[N+]1([O-])CCN(C2=Nc3cc(Cl)ccc3Nc3ccccc32)CC1 [Compound 5d] the molecule record lists EC50 as 740 nM

For O=C1CN(C2=Nc3cc(Cl)ccc3Nc3ccccc32)CCN1 [Compound 7] the molecule record lists EC50 as > 30000 nM

For C[N+]1(C)CCN(C2=Nc3cc(Cl)ccc3Nc3ccccc32)CC1.[I-] [Compound 6] the molecule record lists EC50 as 0.069 nM

For CC(C)N1CCN(C2=Nc3cc(Cl)ccc3Nc3ccccc32)CC1 [Compound 4c] the molecule record lists EC50 as 13 nM

For CCCN1CCN(C2=Nc3cc(Cl)ccc3Nc3ccccc32)CC1 [Compound 4d] the molecule record lists EC50 as 71 nM

For CC(=O)N1CCN(C2=Nc3cc(Cl)ccc3Nc3ccccc32)CC1 [Compound 12] the molecule record lists EC50 as > 30000 nM

For CC[N+]1([O-])CCN(C2=Nc3ccccc3Nc3ccccc32)CC1 [Compound 23] the molecule record lists EC50 as 220 nM

For CC[N+]1([O-])CCN(C2=Nc3cc(Cl)ccc3Nc3ccccc32)CC1 [Compound 5b] the molecule record lists EC50 as 19 nM

The reported measurements were obtained from paper PMC4368042.
